Please provide measured pIC50 for the entries that follow.
target: human CCR2B (Homo sapiens (Human), UniProt P41597); experiment: Inhibition of native agonist (human MCP-1)-induced intracellular calcium release, calcium flux assay in CHO cells expressing human CCR2B and Gα16; type: cell-based; conditions: read-out: hCCR2B IC50
Sequence (P41597 other isoform, or with tags, fused parts or gaps): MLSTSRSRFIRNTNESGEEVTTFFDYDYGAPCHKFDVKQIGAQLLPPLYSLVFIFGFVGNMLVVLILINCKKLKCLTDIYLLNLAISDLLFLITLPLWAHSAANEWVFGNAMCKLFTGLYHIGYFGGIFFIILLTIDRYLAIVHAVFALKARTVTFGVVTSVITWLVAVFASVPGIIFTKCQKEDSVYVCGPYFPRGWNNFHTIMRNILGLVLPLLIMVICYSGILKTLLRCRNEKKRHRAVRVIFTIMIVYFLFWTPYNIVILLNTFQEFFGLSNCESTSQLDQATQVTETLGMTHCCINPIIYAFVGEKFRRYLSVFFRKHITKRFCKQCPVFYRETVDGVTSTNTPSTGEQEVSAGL
Give bare numbers, as −log10 of the molar value.

// each compound listed below needs its pIC50
1. N#Cc1ccc(C(F)(F)F)cc1N1C[C@@H]2C[C@H]1CN2C(=O)[C@@]12CCC[C@@H]1C[C@@H](N1CCC(c3ccccc3)CC1)C2 [Example 48]
2. CO[C@@H]1COCC[C@@H]1N(C)[C@@H]1C[C@H]2CCC[C@@]2(C(=O)N2C[C@@H]3C[C@H]2CN3c2cccc(C(F)(F)F)c2C#N)C1 [Example 54]
3. CO[C@@H]1COCC[C@@H]1N[C@@H]1C[C@H]2CCC[C@@]2(C(=O)N2C[C@@H]3C[C@H]2CN3c2ccc(C(F)(F)F)cn2)C1 [Example 34]
4. CO[C@@H]1COCC[C@@H]1N[C@@H]1C[C@H]2CCC[C@@]2(C(=O)N2C[C@@H]3C[C@H]2CN3c2cc(C(F)(F)F)ccc2C(F)(F)F)C1 [Example 50]
5. CO[C@@H]1COCC[C@@H]1N[C@@H]1C[C@H]2CCC[C@@]2(C(=O)N2C[C@@H]3C[C@H]2CN3c2ccc(F)c(C(F)(F)F)c2)C1 [Example 15]
6. O=C(N1C[C@@H]2C[C@H]1CN2c1cc(C(F)(F)F)ccn1)[C@@]12CCC[C@@H]1C[C@@H](N1CCC(c3ccccc3)CC1)C2 [Example 49]
7. O=C(O)c1cccc(C2CCN([C@H]3C[C@H]4CCC[C@@]4(C(=O)N4C[C@@H]5C[C@H]4CN5c4cc(C(F)(F)F)ccn4)C3)CC2)c1 [Example 9]

1. 7.29
2. 5.56
3. 5.56
4. 7.59
5. 7.46
6. 7.43
7. 6.33

---

target: human CCR2B (Homo sapiens (Human)); assay: Inhibition of native agonist (human MCP-1)-induced intracellular calcium release, calcium flux assay in CHO cells expressing human CCR2B and Gα16; assay type: cell-based; conditions: read-out: hCCR2B Kb
We use 100 nM as the dividing line for Kb: on or above the line is criterion met, below is criterion not met.

Is Kb at least 100 nM? Consider CO[C@@H]1COCC[C@@H]1N[C@@H]1C[C@H]2CCC[C@@]2(C(=O)N2C[C@@H]3C[C@H]2CN3c2ccc(C(F)(F)F)cn2)C1 [Example 34]
criterion met

Is Kb at least 100 nM? Consider CO[C@@H]1COCC[C@@H]1N[C@@H]1C[C@H]2CCC[C@@]2(C(=O)N2C[C@@H]3C[C@H]2CN3c2cccc(C(F)(F)F)c2C#N)C1 [Example 45]
criterion met

Is Kb at least 100 nM? Consider CO[C@@H]1COCC[C@H]1N[C@@H]1C[C@H]2CCC[C@@]2(C(=O)N2C[C@H]3C[C@@H]2CN3c2cc(C(F)(F)F)ccn2)C1 [Example 4]
criterion met

Is Kb at least 100 nM? Consider CO[C@@H]1COCC[C@@H]1N[C@@H]1C[C@H]2CCC[C@@]2(C(=O)N2C[C@@H]3C[C@H]2CN3c2cccc(C(F)(F)F)c2F)C1 [Example 17]
criterion met

Is Kb at least 100 nM? Consider CO[C@@H]1COCC[C@@H]1N(C)[C@@H]1C[C@H]2CCC[C@@]2(C(=O)N2C[C@@H]3C[C@H]2CN3c2cc(C#N)cc(C(F)(F)F)c2)C1 [Example 57]
criterion met

Is Kb at least 100 nM? Consider CO[C@@H]1COCC[C@@H]1N[C@@H]1C[C@H]2CCC[C@@]2(C(=O)N2C[C@@H]3C[C@H]2CN3c2cccc(C(F)(F)F)c2C)C1 [Example 23]
criterion met

Is Kb at least 100 nM? Consider O=C(N1C[C@@H]2C[C@H]1CN2c1cc(C(F)(F)F)ccn1)[C@@]12CCC[C@@H]1C[C@@H](N1CCC(c3ccccc3)CC1)C2 [Example 49]
criterion not met

Is Kb at least 100 nM? Consider CO[C@@H]1COCC[C@@H]1N(C)[C@@H]1C[C@H]2CCC[C@@]2(C(=O)N2C[C@@H]3C[C@H]2CN3c2cccc(Cl)c2C#N)C1 [Example 58]
criterion met

Is Kb at least 100 nM? Consider C[C@H]1COCC[C@H]1N[C@@H]1C[C@H]2CCC[C@@]2(C(=O)N2C[C@@H]3C[C@H]2CN3c2cc(C(F)(F)F)ccn2)C1 [Example 62]
criterion met

Is Kb at least 100 nM? Consider CC[C@@H]1COCC[C@H]1N[C@@H]1C[C@H]2CCC[C@@]2(C(=O)N2C[C@@H]3C[C@H]2CN3c2cc(C(F)(F)F)ccn2)C1 [Example 66]
criterion not met

Is Kb at least 100 nM? Consider CO[C@@H]1COCC[C@@H]1N(C)[C@@H]1C[C@H]2CCC[C@@]2(C(=O)N2C[C@@H]3C[C@H]2CN3c2ccc(Cl)c(C(F)(F)F)c2)C1 [Example 51]
criterion not met

Is Kb at least 100 nM? Consider CO[C@@H]1COCC[C@@H]1N(C)[C@@H]1C[C@H]2CCC[C@@]2(C(=O)N2C[C@@H]3C[C@H]2CN3c2cccc(C(F)(F)F)c2C#N)C1 [Example 54]
criterion met

Is Kb at least 100 nM? Consider CO[C@@H]1COCC[C@@H]1N(C)[C@@H]1C[C@H]2CCC[C@@]2(C(=O)N2C[C@@H]3C[C@H]2CN3c2cc(C(F)(F)F)ccn2)C1 [Example 7]
criterion not met

Is Kb at least 100 nM? Consider C[C@@H]1COCC[C@H]1N[C@@H]1C[C@H]2CCC[C@@]2(C(=O)N2C[C@@H]3C[C@H]2CN3c2cc(C(F)(F)F)ccn2)C1 [Example 64]
criterion not met

Is Kb at least 100 nM? Consider C[C@H]1COCC[C@@H]1N[C@@H]1C[C@H]2CCC[C@@]2(C(=O)N2C[C@@H]3C[C@H]2CN3c2cc(C(F)(F)F)ccn2)C1 [Example 61]
criterion not met

Is Kb at least 100 nM? Consider CO[C@@H]1COCC[C@@H]1N[C@@H]1C[C@H]2CCC[C@@]2(C(=O)N2C[C@@H]3C[C@H]2CN3c2ccc(C#N)cc2C(F)(F)F)C1 [Example 37]
criterion met

Is Kb at least 100 nM? Consider O=C(O)c1cccc(C2CCN([C@H]3C[C@H]4CCC[C@@]4(C(=O)N4C[C@@H]5C[C@H]4CN5c4cc(C(F)(F)F)ccn4)C3)CC2)c1 [Example 9]
criterion met

Is Kb at least 100 nM? Consider CO[C@@H]1COCC[C@@H]1N[C@@H]1C[C@H]2CCC[C@@]2(C(=O)N2C[C@@H]3C[C@H]2CN3c2cc(C(F)(F)F)cc(C(F)(F)F)c2)C1 [Example 43]
criterion met

Is Kb at least 100 nM? Consider O=C(N1C[C@@H]2C[C@H]1CN2c1cc(C(F)(F)F)ccn1)[C@@]12CCC[C@@H]1C[C@@H](N1CCOCC1)C2 [Example 59]
criterion met

Is Kb at least 100 nM? Consider CO[C@@H]1COCC[C@@H]1N[C@@H]1C[C@H]2CCC[C@@]2(C(=O)N2C[C@@H]3C[C@H]2CN3c2ccc(Cl)c(C#N)c2)C1 [Example 47]
criterion not met

---

target: human CCR2B (Homo sapiens (Human), UniProt P41597); assay: Inhibition of [125I]-labeled MCP-1 binding to hCCR2B (radioligand binding in CHO cells); settings: mean Ki; [125I]-MCP-1 50 pM; CHO cells expressing human CCR2B and Gα16
Please provide measured Ki for the entries that follow.
Numbers only, in nM.

[[record]]
compound = "CO[C@@H]1COCC[C@@H]1N[C@@H]1C[C@H]2CCC[C@@]2(C(=O)N2C[C@@H]3C[C@H]2CN3c2nc(C(F)(F)F)cs2)C1 [Example 30]"
quantitykind = "Ki"
observedvalue = 831

[[record]]
compound = "C[C@H]1COCC[C@@H]1N[C@@H]1C[C@H]2CCC[C@@]2(C(=O)N2C[C@@H]3C[C@H]2CN3c2cc(C(F)(F)F)ccn2)C1 [Example 61]"
quantitykind = "Ki"
observedvalue = 69


Let's switch to this compound now.
Lookup: Ki / human CCR2B (Homo sapiens (Human), UniProt P41597) / CO[C@@H]1COCC[C@@H]1N[C@@H]1C[C@H]2CCC[C@@]2(C(=O)N2C[C@@H]3C[C@H]2CN3c2cccc(OC(F)(F)F)c2)C1 [Example 29]
473

---

Please provide measured Kb for the entries that follow.
Target: UniProt P41597
Assay: Inhibition of native agonist (human MCP-1)-induced intracellular calcium release, calcium flux assay in CHO cells expressing human CCR2B and Gα16
Format: cell-based
Details: read-out: hCCR2B Kb
Experimental: CHO cells expressing human CCR2B were generated as follows. cDNA for human CCR2B (cloned from human blood) was cloned into plasmid pcDNA3.1 (from Invitrogen). […] Briefly, cells were cultured overnight in a microtiter plate at 8000 per well. […] Calcium flux assays were performed on a FLIPR^Tetra instrument (Molecular Devices) by adding compound to the cells followed by addition of native agonist and measuring the change in fluorescence as a function of time. […]
Give bare numbers, in nM.

A selection of reference data follows.
[[record]]
samplesmiles = "O=C(O)c1cccc(C2CCN([C@@H]3C[C@H]4CCC[C@@]4(C(=O)N4C[C@@H]5C[C@H]4CN5c4cc(C(F)(F)F)ccn4)C3)CC2)c1"
quantitykind = "Kb"
scaleunit = "nM"
observedvalue = 394

[[record]]
samplesmiles = "CO[C@@H]1COCC[C@@H]1N[C@@H]1C[C@H]2CCC[C@@]2(C(=O)N2C[C@@H]3C[C@H]2CN3c2cc(C)cc(C(F)(F)F)c2)C1"
quantitykind = "Kb"
scaleunit = "nM"
observedvalue = 341

[[record]]
samplesmiles = "CO[C@@H]1COCC[C@@H]1N[C@@H]1C[C@H]2CCC[C@@]2(C(=O)N2C[C@@H]3C[C@H]2CN3C(=O)OC(C)(C)C)C1"
quantitykind = "Kb"
scaleunit = "nM"
observedvalue = 81

[[record]]
samplesmiles = "CO[C@@H]1COCC[C@@H]1N[C@@H]1C[C@H]2CCC[C@@]2(C(=O)N2C[C@@H]3C[C@H]2CN3c2cccc(Cl)c2C#N)C1"
quantitykind = "Kb"
scaleunit = "nM"
observedvalue = 394

[[record]]
samplesmiles = "CO[C@@H]1COCC[C@@H]1N[C@@H]1C[C@H]2CCC[C@@]2(C(=O)N2C[C@@H]3C[C@H]2CN3c2ccnc(C(F)(F)F)n2)C1"
quantitykind = "Kb"
scaleunit = "nM"
observedvalue = 96

[[record]]
samplesmiles = "CO[C@@H]1COCC[C@@H]1N(C)[C@@H]1C[C@H]2CCC[C@@]2(C(=O)N2C[C@@H]3C[C@H]2CN3c2cc(C(F)(F)F)ccc2C(F)(F)F)C1"
quantitykind = "Kb"
scaleunit = "nM"
observedvalue = 21


// each compound listed below needs its Kb
1. CO[C@@H]1COCC[C@@H]1N[C@@H]1C[C@H]2CCC[C@@]2(C(=O)N2C[C@@H]3C[C@H]2CN3c2ccnc(Cl)c2)C1
2. CO[C@@H]1COCC[C@@H]1N[C@@H]1C[C@H]2CCC[C@@]2(C(=O)N2C[C@@H]3C[C@H]2CN3c2ccc(Cl)c(Cl)c2)C1
3. CO[C@@H]1COCC[C@@H]1N[C@@H]1C[C@H]2CCC[C@@]2(C(=O)N2C[C@@H]3C[C@H]2CN3c2nc(C(F)(F)F)cs2)C1
4. CO[C@@H]1COCC[C@@H]1N(C)[C@@H]1C[C@H]2CCC[C@@]2(C(=O)N2C[C@@H]3C[C@H]2CN3c2cc(C(F)(F)F)cc(C(F)(F)F)c2)C1
5. CO[C@@H]1COCC[C@@H]1N(C)[C@@H]1C[C@H]2CCC[C@@]2(C(=O)N2C[C@@H]3C[C@H]2CN3c2cc(C(F)(F)F)ccc2C#N)C1

[682, 10, 23, 346, 12]
